# PROTOCOL DESCRIPTION: Metabolic stability (Half life) at pH-2.0 was evaluated
# Format: ADME
# TEST SETTINGS: read-out: T1/2 h/
PROPERTY NAME: half-life (min)
Answer format: numeric, min implied, no suffix.

half-life for CC1=CN2C(NC1=O)OC[C@H]1O[C@@H]2C[C@@H]1N=[N+]=[N-] (stereo partly specified) ?
29.5
